These entries and their values trace back to PubChem BioAssay AID1851.

Test target: Cytochrome P450 2D6 (Homo sapiens)
Procedure text: Cytochrome panel assay with activity outcomes
Test settings: recombinant CYP, pro-luciferin dealkylation, luminescence, p450-cyp2d6; series mostly up to 57.1 µM
Screen size: about 16,000 compounds; about 2,600 (16%) were called active. About 20% were inconclusive and are not listed. Calls come from the whole dose curve; as a rule, active = well fitted curve in the direction sought with a large enough effect; inconclusive = small, poorly fitted or top-dose-only effect, or effect the other way; inactive = no such curve, though single readings can be large or run the other way. A selection follows.
Answer with one of the outcomes active, inactive

Sample answers from the record:
- Compound: "CC(=O)N(CC(O)CN(C(C)=O)c1c(I)c(C(=O)NC[C@@H](O)CO)c(I)c(C(=O)NC[C@@H](O)CO)c1I)c1c(I)c(C(=O)NC[C@@H](O)CO)c(I)c(C(=O)NC[C@@H](O)CO)c1I"
  Class: "inactive"
- Compound: "CN(C)c1ccc(-c2ccc3ncnc(NC4CC4)c3c2)cc1"
  Class: "inactive"
- Compound: "Cc1ccccc1-c1ccc2ncnc(NC3CC3)c2c1"
  Class: "active"
- Compound: "CCCCc1c2ccccc2nc2[nH]c3ccccc3c12"
  Class: "inactive"
- Compound: "CC(C)(C)OC(=O)COc1cc(OCC(=O)OC(C)(C)C)c2c(=O)cc(-c3ccccc3)oc2c1"
  Class: "inactive"
- Compound: "Oc1ccc(/C=N/NC(=S)NCc2ccco2)cc1"
  Class: "inactive"
- Compound: "Nc1cc(Cl)nc(N/N=C/c2ccccc2[N+](=O)[O-])n1"
  Class: "inactive"
- Compound: "COC(=O)c1cc(Br)c(=O)n(CCc2ccc(O)cc2)c1"
  Class: "inactive"
- Compound: "CCn1c2ccc(Cl)cc2c2nc3ccccc3nc21"
  Class: "inactive"
- Compound: "CN1CCN(c2ncc3nc(-c4cccs4)c(=O)n(-c4ccccc4)c3n2)CC1"
  Class: "inactive"

Problem: Test call, this compound: Cc1cc(N2C(=O)C(O)=C(C(=O)c3ccco3)C2c2ccc(O)cc2)no1 (stereo unspecified)
Result: inactive

====

Test target: Cytochrome P450 2D6 (Homo sapiens) (UniProt P10635)
Sequence (P10635 whole entry, looked up): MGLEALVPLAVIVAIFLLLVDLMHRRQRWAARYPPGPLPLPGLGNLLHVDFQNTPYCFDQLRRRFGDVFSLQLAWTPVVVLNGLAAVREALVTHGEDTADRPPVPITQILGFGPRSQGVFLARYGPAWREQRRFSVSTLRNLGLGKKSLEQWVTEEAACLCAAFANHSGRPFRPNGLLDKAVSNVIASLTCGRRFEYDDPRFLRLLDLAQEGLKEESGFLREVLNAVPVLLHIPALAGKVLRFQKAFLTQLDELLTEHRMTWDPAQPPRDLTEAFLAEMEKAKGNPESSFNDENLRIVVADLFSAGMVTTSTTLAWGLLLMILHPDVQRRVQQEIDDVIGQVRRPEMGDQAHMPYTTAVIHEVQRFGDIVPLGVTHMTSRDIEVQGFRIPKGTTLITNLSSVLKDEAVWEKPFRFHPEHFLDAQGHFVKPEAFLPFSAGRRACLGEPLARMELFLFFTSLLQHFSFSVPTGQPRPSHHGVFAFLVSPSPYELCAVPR
Procedure text: Cytochrome panel assay with activity outcomes
Test settings: recombinant CYP, pro-luciferin dealkylation, luminescence, p450-cyp2d6; series mostly up to 57.1 µM
About 2,600 (16%) of roughly 16,000 compounds were called active. About 20% were inconclusive and are not listed. Calls follow the shape of the dose curve; as a rule, active = well fitted curve in the direction sought with a large enough effect; inconclusive = small, poorly fitted or top-dose-only effect, or effect the other way; inactive = no such curve, though single readings can be large or run the other way. A selection follows.
Answer with one of the outcomes active, inactive

Sample answers from the record:
- Compound: "Cc1cccc(C)c1NC(=O)CSc1nc(C)c(CC(=O)c2ccc(Br)cc2)c(C)c1C#N"
  Class: "inactive"
- Compound: "COC(=O)c1cc(C#N)c(NCc2ccc(Cl)cc2Cl)nc1C"
  Class: "inactive"
- Compound: "Cc1ccccc1OCC(=O)N/N=C1\\CCOc2c(C)cccc21"
  Class: "inactive"

Problem: Test call, this compound: O=[N+]([O-])c1ccc(Nc2nc(N/N=C\c3ccc4c(c3)OCO4)nc(N3CCCCC3)n2)cc1
Result: inactive

Problem: Test call, this compound: O=C1[C@@H]2C=CC=CC2=NC(=S)N1CCN1CCC(=C(c2ccc(F)cc2)c2ccc(F)cc2)CC1
Result: active

Problem: Test call, this compound: Cc1cc(N2C(=O)C(O)=C(C(=O)c3cccs3)C2c2cccc(O)c2)no1 (stereo not given)
Result: inactive

Problem: Test call, this compound: O=P(O)(O)CCP(=O)(c1ccccc1)c1ccccc1
Result: inactive

Problem: Test call, this compound: OC(CN1CCCCC1)CN1CCCCC1
Result: inactive

Problem: Test call, this compound: C=CCn1c(SCc2ccc3c(c2)OCO3)nc2scc(-c3ccco3)c2c1=O
Result: inactive

Problem: Test call, this compound: COc1ccccc1/C=N/NC(=O)CC(=O)Nc1ccc(Cl)c(Cl)c1
Result: active

====

Test target: Cytochrome P450 2D6 (Homo sapiens) (UniProt P10635)
Procedure text: Cytochrome panel assay with activity outcomes
Test settings: recombinant CYP, pro-luciferin dealkylation, luminescence, p450-cyp2d6; series mostly up to 57.1 µM
The campaign covered roughly 16,000 compounds. About 2,600 (16%) were called active. Another 20% or so got no clear call; they are omitted. Calls come from the whole dose curve; as a rule, active = well fitted curve in the direction sought with a large enough effect; inconclusive = small, poorly fitted or top-dose-only effect, or effect the other way; inactive = no such curve, though single readings can be large or run the other way. A selection follows.
Answer with one of the outcomes 1 for active, 0 for inactive

Sample answers from the record:
- Compound: "COc1ccc2[nH]c(C(=O)c3ccccc3)cc2c1"
  Class: 0
- Compound: "Brc1ccc(-c2nnc(-c3ccccc3)c(N3CCSCC3)n2)cc1"
  Class: 0
- Compound: "N[C@H](CCC(=O)NCS(=O)(=O)O)C(=O)O"
  Class: 0
- Compound: "CC(N)=O"
  Class: 0
- Compound: "Cn1c(=O)c2c(nc(N3CCN(c4ccccn4)CC3)n2Cc2ccccc2Cl)n(C)c1=O"
  Class: 0

Problem: Test call, this compound: CC(=O)/C=C/c1ccc2ccccc2n1
Result: 0

Problem: Test call, this compound: O=C(OC1CCN(c2ncc(C(F)(F)F)cc2Cl)CC1)c1ccccc1
Result: 0

====

Test target: Cytochrome P450 2D6 (Homo sapiens) (UniProt P10635)
Procedure text: Cytochrome panel assay with activity outcomes
Test settings: recombinant CYP, pro-luciferin dealkylation, luminescence, p450-cyp2d6; series mostly up to 57.1 µM
In all, about 16,000 compounds went through this assay and about 2,600 (16%) were called active. About 20% were inconclusive and are not listed. The call rests on the fitted dose curve; in most records, active means well fitted curve in the direction sought with a large enough effect; inconclusive means small, poorly fitted or top-dose-only effect, or effect the other way; inactive means no such curve, though single readings can be large or run the other way. Not all results are given here.
Answer with one of the outcomes yes for active, no for inactive

Sample answers from the record:
- Molecule: "c1ccc(Cc2nnc(Sc3ccccc3)c3ccccc23)cc1"
  Class: "no"
- Molecule: "c1csc(CNc2ccnc(-c3ccoc3)n2)c1"
  Class: "yes"
- Molecule: "CCOC(=O)C1CN(S(=O)(=O)c2cccc(C(F)(F)F)c2)c2cc(CC(=O)OC)ccc2O1 (stereo unspecified)"
  Class: "no"
- Molecule: "c1ccc(CNc2ccnc(-c3ccoc3)n2)cc1"
  Class: "yes"
- Molecule: "CO[C@H]1[C@H](O[C@H]2O[C@@H](C)[C@@H](O[C@@H]3C[C@](C)(O)[C@H](OC(=O)CC(C)C)[C@H](C)O3)[C@@H](N(C)C)[C@@H]2O)[C@@H](CC=O)C[C@@H](C)[C@@H](O)/C=C\\C=C/C[C@@H](C)OC(=O)C[C@H]1OC(C)=O"
  Class: "no"
- Molecule: "COCCCNC(=O)c1c(N)n(/N=C/c2ccccn2)c2nc3ccccc3nc12"
  Class: "no"

Problem: Test call, this molecule: Cc1cnc(CNc2ccnc(-c3c(C)noc3C)n2)cn1
Result: no

Problem: Test call, this molecule: CCCCCOC(=O)c1c(N)n(CCOC)c2nc3ccccc3nc12
Result: yes

Problem: Test call, this molecule: CN(/C=C/C(=O)C(F)(F)F)Cc1ccccc1
Result: no

Problem: Test call, this molecule: CC(NC(=O)c1ccc(Cl)cc1)c1nnc(SCc2ccc([N+](=O)[O-])cc2)n1C (stereo unspecified)
Result: no

Problem: Test call, this molecule: Cc1cnc(CNc2ccnc(-c3ccoc3)n2)cn1
Result: no

====

Test target: Cytochrome P450 2D6 (Homo sapiens)
Procedure text: Cytochrome panel assay with activity outcomes
Test settings: recombinant CYP, pro-luciferin dealkylation, luminescence, p450-cyp2d6; series mostly up to 57.1 µM
The whole screen tested about 16,000 compounds, of which about 2,600 (16%) were called active. Not shown: some 20% with an inconclusive outcome. Calls come from the whole dose curve; as a rule, active = well fitted curve in the direction sought with a large enough effect; inconclusive = small, poorly fitted or top-dose-only effect, or effect the other way; inactive = no such curve, though single readings can be large or run the other way. Not all results are given here.
Answer with one of the outcomes active, inactive

Sample answers from the record:
- Molecule: "COc1c2ccoc2nc2c(OC)c(OC[C@H](O)C(C)(C)O)ccc12"
  Class: "inactive"
- Molecule: "COc1cccc(Nc2ncc3nc(CCc4ccccc4)c(=O)n(CCC#N)c3n2)c1"
  Class: "inactive"
- Molecule: "O=C(/C=C/c1ccc(Cl)cc1)Nc1ccc(N2CCCCC2)cc1"
  Class: "inactive"
- Molecule: "O=C(O)Cc1c[nH]c2ccc(O)cc12"
  Class: "inactive"
- Molecule: "Cc1noc(C)c1C(=O)N1CCC2(CCCN(c3ccncc3)C2)CC1"
  Class: "inactive"
- Molecule: "Cc1cc(C)c(NC(=O)C(C)Sc2nnc(-c3ccco3)n2-c2ccccc2)c(C)c1 (stereo not drawn)"
  Class: "inactive"
- Molecule: "COc1ccccc1CNc1ncncc1-c1cccc(C#N)c1"
  Class: "active"
- Molecule: "O=C(Nc1cccc(NC(=O)N2CCN(c3ccccc3)CC2)c1)N1CCN(c2ccccc2)CC1"
  Class: "inactive"
- Molecule: "COc1ccc2c(c1)c(CC(=O)N1CCOCC1)c(C)n2C(=O)c1ccc(Cl)cc1"
  Class: "inactive"
- Molecule: "O=C(CN1CCN(S(=O)(=O)c2ccccc2)CC1)NC(=O)NCc1ccccc1"
  Class: "inactive"

Problem: Test call, this molecule: CCOc1cc(CC(=O)N[C@@H](CC(C)C)c2ccccc2N2CCCCC2)ccc1C(=O)O
Result: inactive

Problem: Test call, this molecule: CCNc1ncc2nc(CCc3ccccc3)c(=O)n(CCC#N)c2n1
Result: active

Problem: Test call, this molecule: O=C(NNS(=O)(=O)c1cc(Cl)cc(Cl)c1)c1sccc1-n1cccc1
Result: inactive

Problem: Test call, this molecule: O=C(Nc1ccccc1)N1CCOCC1
Result: inactive

Problem: Test call, this molecule: COc1ccc(CNc2cc(-c3ccccc3CN(C)C)ncn2)c(OC)c1
Result: active

Problem: Test call, this molecule: O=C1NC(=S)N/C1=C/c1cccc([N+](=O)[O-])c1O
Result: inactive
